Biological target: rat MCH-1 (Rattus norvegicus, UniProt P97639)
Sequence (P97639 whole entry): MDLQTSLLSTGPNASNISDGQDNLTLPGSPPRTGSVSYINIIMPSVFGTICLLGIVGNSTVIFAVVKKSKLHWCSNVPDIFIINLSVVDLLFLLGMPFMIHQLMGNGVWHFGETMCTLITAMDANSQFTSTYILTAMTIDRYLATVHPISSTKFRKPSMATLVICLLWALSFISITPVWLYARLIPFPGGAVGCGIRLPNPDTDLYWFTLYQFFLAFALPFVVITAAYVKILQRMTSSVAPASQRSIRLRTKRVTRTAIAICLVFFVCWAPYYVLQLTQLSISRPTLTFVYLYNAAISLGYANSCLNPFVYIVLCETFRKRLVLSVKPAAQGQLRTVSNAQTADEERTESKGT
Test: Radioligand binding assay at cloned rat MCH1 receptor ([3H] Compound A)
Set-up: host or cells: Peak rapid 293 (Peakr293) cells, transient calcium phosphate transfection, membranes
Conditions: cloned rat MCH1 receptor, membranes from Peakr293 cells, 0.08 nM [3H] Compound A; read-out: Ki (nM) rMCH1
parameter: Ki (nM)

| compound | targetSystem | measurementUnits | resultValue |
| --- | --- | --- | --- |
| CC(C)C(=O)Nc1cccc(C2CCN(CCC(Oc3ccc(Cl)cc3)c3ccc(F)cc3)CC2)c1 (stereo not drawn) | rat MCH-1 (Rattus norvegicus, UniProt P97639) | nM | 11.9 |

(a) CC(C)C(=O)Nc1ccc(OC(F)(F)F)cc1C1CCN(CCCC(c2ccc(F)cc2)c2ccc(F)cc2)CC1
(b) CC(C)C(=O)Nc1cccc(C2CCN(CC[C@H](NC(=O)c3ccc([N+](=O)[O-])o3)c3ccccc3)CC2)c1
So which one has the bigger Ki here, a or b ? Please identify the chosen entry by its label.
a
(a: 118 nM, b: 76.8 nM)

(A) COc1cccc(OC(CCN2CCC(c3cccc(NC(=O)C(C)C)c3)CC2)c2ccc(Br)cc2)c1 (stereo not drawn)
(B) CC(C)C(=O)Nc1cccc(C2CCN(Cc3ccc(N4CCOCC4)c([N+](=O)[O-])c3)CC2)c1
(C) Cc1nn(-c2ccccc2)c(Cl)c1CN1CCC(c2cccc(NC(=O)C(C)C)c2)CC1
(D) CC(=O)c1ccccc1OC(CCN1CCC(c2cccc(NC(=O)C(C)C)c2)CC1)c1ccc2c(c1)CCC2 (stereo not drawn)
Rank items: key Ki, increasing. To answer, arrange all of the labels according to the requested order.
A, D, B, C
(A: 8.7 nM, D: 15.4 nM, B: 68.8 nM, C: 155 nM)

----------
Target: rat MCH-1 (Rattus norvegicus)
Test: Radioligand binding assay at cloned rat MCH1 receptor ([3H] Compound A)
Design: host or cells: Peak rapid 293 (Peakr293) cells, transient calcium phosphate transfection, membranes
Settings: cloned rat MCH1 receptor; 0.08 nM [3H] Compound A; Peakr293 cell membranes; read-out: Ki (nM) rMCH1
parameter: Ki (nM)

Examples with their reported Ki follow.
| compound | resultValue |
| --- | --- |
| Cc1cccc2c(CCCN3CCC(c4cccc(NC(=O)C(C)C)c4)CC3)c(-c3ccccc3Cl)[nH]c12 | 10 |
| O=C(CCCCN1CCC(c2cccc(NC(=O)C3CC3)c2)CC1)c1cccc(C(F)(F)F)c1 | 68.8 |
| CC(C)C(=O)Nc1cccc(C2CCN(CCCn3ccc4ccccc43)CC2)c1 | 37.8 |
| CC(C)C(=O)Nc1cccc(C2CCN(Cc3cn(-c4ccccc4F)c4cc(Cl)ccc34)CC2)c1 | 13.3 |
| CC(C)C(=O)Nc1cccc(C2CCN(CCCc3c(-c4ccccc4F)[nH]c4ccc(OC(F)(F)F)cc34)CC2)c1 | 2.1 |
| CC(C)C(=O)Nc1cccc(C2CCN(CCCCC(Oc3ccc(Br)cc3)c3ccc(F)cc3)CC2)c1 (stereo not drawn) | 14 |
| COC(=O)c1ccc(-n2ccc3c(CN4CCC(c5cccc(NC(=O)C(C)C)c5)CC4)cccc32)cc1 | 38.3 |
| CC(C)C(=O)Nc1cccc(C2CCN(Cc3c[nH]c4cc(-c5ccccc5F)ccc34)CC2)c1 | 91.4 |

(P) CC(C)C(=O)Nc1cccc(C2CCN(CCCCCCC(=O)c3ccccc3)CC2)c1
(Q) CC(C)C(=O)Nc1cccc(C2CCN(CCCc3c(-c4cccc(Br)c4)[nH]c4ccc(OC(F)(F)F)cc34)CC2)c1
So which one has the bigger Ki here, P or Q ? Please identify the chosen entry by its label.
P
(P: 115 nM, Q: 12.4 nM)

----------
Target: rat MCH-1 (Rattus norvegicus)
Assay: Radioligand binding assay at cloned rat MCH1 receptor ([3H] Compound A)
Design: host or cells: Peak rapid 293 (Peakr293) cells, transient calcium phosphate transfection, membranes
Conditions: cloned rat MCH1 receptor, membranes from Peakr293 cells, 0.08 nM [3H] Compound A; read-out: Ki (nM) rMCH1
parameter: Ki (nM)

Examples with their reported Ki follow.
| compound | measurementUnits | Ki |
| --- | --- | --- |
| COc1cccc(O[C@@H](CN2CCC(c3cccc(NC(=O)C(C)C)c3)CC2)c2ccccc2)c1 [Example 338] | nM | 844 |
| CC(C)C(=O)Nc1cccc(C2CCN(Cc3ccc(-c4nc(C(C)(C)C)cs4)cc3)CC2)c1 [Example 229] | nM | 885 |
| CC(C)C(=O)Nc1cccc(C2CCN(CCCCCN3C(=O)OCC3c3ccc(F)c(F)c3)CC2)c1 (centres unmarked) [Example 105] | nM | 4.6 |

(P) COc1ccc(O[C@H](CN2CCC(c3cccc(NC(=O)C(C)C)c3)CC2)c2ccccc2)cc1OC [Example 336]
(Q) CC(C)C(=O)Nc1cccc(C2CCN(CCC(Oc3ccc(F)cc3)c3ccc4c(c3)CCC4)CC2)c1 (centres unmarked) [Example 162]
(R) CCn1c2ccccc2c2cc(CN3CCC(c4cc(NC(=O)C(C)C)ccc4C)CC3)ccc21 [Example 270]
(S) Cc1ccc(OCCCN2CCC(c3cccc(NC(=O)C(C)C)c3)CC2)cc1C [Example 349]
(T) CC(C)C(=O)Nc1cccc(C2CCN(CCCCOC(=O)Cc3ccc(F)cc3)CC2)c1 [Example 299]
// sort entries: Ki, high to low To answer, arrange all of the labels according to the requested order.
P, T, S, Q, R

----------
Target: rat MCH-1 (Rattus norvegicus, UniProt P97639)
Assay: Radioligand binding assay at cloned rat MCH1 receptor ([3H] Compound A)
Parameters: host or cells: Peak rapid 293 (Peakr293) cells, transient calcium phosphate transfection, membranes
Conditions: cloned rat MCH1 receptor, membranes from Peakr293 cells, 0.08 nM [3H] Compound A; read-out: Ki (nM) rMCH1
parameter: Ki (nM)

| compound | measurementUnits | resultValue |
| --- | --- | --- |
| CC(C)C(=O)Nc1cccc(C2CCN(Cc3cccc(Oc4ccccc4)c3)CC2)c1 | nM | 28 |

(P) CC(C)C(=O)Nc1cccc(C2CCN(CCC(Oc3cccc(F)c3)c3ccc(F)cc3)CC2)c1 (stereo not shown)
(Q) CC(=O)c1cccc(OCCCCCN2CCC(c3cccc(NC(=O)C(C)C)c3)CC2)c1
(R) CC(C)C(=O)Nc1cccc(C2CCN(C[C@@H](Oc3cccc(Cl)c3)c3ccccc3)CC2)c1
Rank items: key Ki, increasing. To answer, arrange all of the labels according to the requested order.
P, Q, R

----------
Biological target: rat MCH-1 (Rattus norvegicus, UniProt P97639)
Assay: Radioligand binding assay at cloned rat MCH1 receptor ([3H] Compound A)
Parameters: host or cells: Peak rapid 293 (Peakr293) cells, transient calcium phosphate transfection, membranes
Details: cloned rat MCH1 receptor, membranes from Peakr293 cells, 0.08 nM [3H] Compound A; read-out: Ki (nM) rMCH1
parameter: Ki (nM)

Examples with their reported Ki follow.
| compound | targetSystem | Ki (nM) |
| --- | --- | --- |
| CC(C)C(=O)Nc1cccc(C2CCN(CCCCCCC(O)c3ccccc3)CC2)c1 (centres unmarked) | rat MCH-1 (Rattus norvegicus, UniProt P97639) | 23.5 |
| Cc1onc(-c2c(Cl)cccc2Cl)c1C(=O)OCCCCCCN1CCC(c2cccc(NC(=O)C(C)C)c2)CC1 | rat MCH-1 (Rattus norvegicus, UniProt P97639) | 11.9 |
| CC(C)C(=O)Nc1cccc(C2CCN(C[C@H](C)COc3cc(F)c(F)cc3F)CC2)c1 | rat MCH-1 (Rattus norvegicus, UniProt P97639) | 115 |
| Cc1ccc(OC(CCN2CCC(c3cccc(NC(=O)C(C)C)c3)CC2)c2ccc(Br)cc2)c(Cl)c1 (centres unmarked) | rat MCH-1 (Rattus norvegicus, UniProt P97639) | 8 |
| CC(C)C(=O)Nc1cccc(C2CCN(Cc3ccc(N(c4ccccc4)c4ccccc4)cc3)CC2)c1 | rat MCH-1 (Rattus norvegicus, UniProt P97639) | 3.6 |
| CC(C)C(=O)Nc1cccc(C2CCN(Cc3ccc(Oc4ccc(Cl)c(Cl)c4)cc3)CC2)c1 | rat MCH-1 (Rattus norvegicus, UniProt P97639) | 6.1 |

(a) CC(C)C(=O)Nc1cccc(C2CCN(C(C)c3csc(-c4ccccc4)n3)CC2)c1 (centres unmarked)
(b) CC(=O)c1ccccc1O[C@H](CN1CCC(c2cccc(NC(=O)C(C)C)c2)CC1)c1ccccc1
Parameter metric = Ki. Return the lower-valued option from a and b . Please identify the chosen entry by its label.
b

----------
Biological target: rat MCH-1 (Rattus norvegicus)
Test: Radioligand binding assay at cloned rat MCH1 receptor ([3H] Compound A)
Design: host or cells: Peak rapid 293 (Peakr293) cells, transient calcium phosphate transfection, membranes
Details: cloned rat MCH1 receptor; 0.08 nM [3H] Compound A; Peakr293 cell membranes; read-out: Ki (nM) rMCH1
parameter: Ki (nM)

(A) CC(C)C(=O)Nc1cccc(C2CCN(CCCc3c(-c4cccc([N+](=O)[O-])c4)[nH]c4ccccc34)CC2)c1 [Example 766]
(B) CC(C)C(=O)Nc1cccc(C2CCN(Cc3cn(-c4ccccc4)c4cc(OCc5ccccc5)ccc34)CC2)c1 [Example 504]
(C) CC(C)C(=O)Nc1cccc(C2CCN(Cc3cccc4c3ccn4-c3ccc(F)cc3F)CC2)c1 [Example 866]
(D) CC(C)C(=O)Nc1cccc(C2CCN(CCCCNC(=O)Nc3cc(Cl)cc(Cl)c3)CC2)c1 [Example 659]
(E) CC(C)C(=O)Nc1cccc(C2CCN(CCCc3c(-c4ccccc4Cl)[nH]c4ccccc34)CC2)c1 [Example 730]
Ranking field: Ki; order: falling. To answer, arrange all of the labels according to the requested order.
C, D, B, A, E
(C: 169 nM, D: 40.2 nM, B: 22.5 nM, A: 7.6 nM, E: 0.9 nM)

(a) CC(=O)c1ccc(OC(CCCCCN2CCC(c3cccc(NC(=O)C(C)C)c3)CC2)c2ccccc2F)cc1 (stereo not shown) [Example 893]
(b) Cc1ccc2[nH]c(-c3ccc(I)cc3)c(CCCN3CCC(c4cccc(NC(=O)C(C)C)c4)CC3)c2c1 [Example 745]
Parameter metric = Ki. Return the lower-valued option from a and b . Please identify the chosen entry by its label.
b
